pIC50: recorded values
Target: FAAH (Homo sapiens, UniProt O00519)
Sequence (O00519 whole entry): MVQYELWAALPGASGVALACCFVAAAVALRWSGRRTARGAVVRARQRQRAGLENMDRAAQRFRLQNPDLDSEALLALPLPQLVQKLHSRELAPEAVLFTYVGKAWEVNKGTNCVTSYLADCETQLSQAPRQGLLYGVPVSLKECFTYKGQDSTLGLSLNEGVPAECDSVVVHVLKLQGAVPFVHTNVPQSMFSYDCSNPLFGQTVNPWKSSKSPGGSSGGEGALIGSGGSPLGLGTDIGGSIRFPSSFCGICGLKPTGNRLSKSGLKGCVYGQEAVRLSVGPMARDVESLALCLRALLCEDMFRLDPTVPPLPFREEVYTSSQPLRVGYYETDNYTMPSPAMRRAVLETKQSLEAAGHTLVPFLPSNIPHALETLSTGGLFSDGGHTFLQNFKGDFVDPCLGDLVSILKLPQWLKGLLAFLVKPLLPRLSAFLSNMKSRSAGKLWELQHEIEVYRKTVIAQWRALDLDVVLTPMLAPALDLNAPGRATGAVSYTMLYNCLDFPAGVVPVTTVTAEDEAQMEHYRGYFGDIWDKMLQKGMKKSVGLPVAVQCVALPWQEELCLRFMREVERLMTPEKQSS
Test: Assay Method 1B: FAAH assay, 3H-anandamide hydrolysis in cell homogenate (T84 or SK-N-MC cells transfected with human FAAH)
Settings: 3H-AEA 80 nM, rt 1 h, pH 9
Description: Transfection of Cells with Human FAAH A 10-cm tissue culture dish with a confluent monolayer of SK—N-MC cells was split 2 days (d) prior to transfection. Using sterile technique, the media was removed and the cells were detached from the dish by the addition of trypsin. One fifth of the cells were then placed onto a new 10-cm dish. […] After 10 d, dishes were analyzed for surviving colonies of cells. […]
pIC50: −log10 of the molar value.
measure: pIC50

O=C(O)c1cccc(-c2cnc(C(=O)CCCCCCc3ccccc3)o2)n1: 9.40
O=C(CCCCCCc1ccccc1)c1ncc(-c2ccc(F)cc2)o1: 7.00
O=C(CCCCCCc1ccccc1)c1ncc(-c2ccc(O)cc2)o1: 6.35
O=C(O)c1ccc(-c2cnc(C(=O)CCCCCCc3ccccc3)o2)cc1: 8.22
Nc1cccc(-c2cnc(C(=O)CCCCCCc3ccccc3)o2)c1: 7.77
N#Cc1ccc(-c2cnc(C(=O)CCCCCCc3ccccc3)o2)cc1: 6.54
O=C(CCCCCCc1ccccc1)c1ncc(-c2ccc([N+](=O)[O-])cc2)o1: 6.96
O=C(O)c1ccc(-c2cnc(C(=O)CCCCCCc3ccccc3)o2)o1: 9.10
COC(=O)c1ccc(-c2cnc(C(=O)CCCCCCc3ccccc3)o2)nc1: 7.96

====

Target: Rat FAAH (Rattus norvegicus, UniProt P97612)
Sequence (P97612 whole entry): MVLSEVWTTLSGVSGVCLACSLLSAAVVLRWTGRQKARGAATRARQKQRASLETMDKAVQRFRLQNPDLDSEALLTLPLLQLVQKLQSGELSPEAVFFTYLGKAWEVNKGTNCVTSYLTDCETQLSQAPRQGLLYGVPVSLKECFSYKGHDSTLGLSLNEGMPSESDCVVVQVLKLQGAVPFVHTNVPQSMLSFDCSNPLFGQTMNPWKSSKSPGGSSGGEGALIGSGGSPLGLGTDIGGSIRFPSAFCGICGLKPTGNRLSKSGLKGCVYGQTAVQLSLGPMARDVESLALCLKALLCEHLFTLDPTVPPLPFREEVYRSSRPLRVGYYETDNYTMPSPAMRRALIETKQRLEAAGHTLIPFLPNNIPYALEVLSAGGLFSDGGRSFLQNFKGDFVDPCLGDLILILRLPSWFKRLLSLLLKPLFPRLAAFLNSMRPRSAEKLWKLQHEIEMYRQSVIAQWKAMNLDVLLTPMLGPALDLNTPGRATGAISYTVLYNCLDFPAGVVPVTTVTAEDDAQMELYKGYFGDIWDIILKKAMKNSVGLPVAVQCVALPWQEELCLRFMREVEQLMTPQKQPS
Test: Assay Method 2: FAAH assay, 3H-anandamide hydrolysis in cell homogenate (SK-N-MC cells transfected with rat FAAH)
Conditions: 3H-AEA 80 nM, rt 1 h, pH 9
Procedure: A. Transfection of Cells with Rat FAAH A 10-cm tissue culture dish with a confluent monolayer of SK—N-MC cells was split 2 days (d) prior to transfection. Using sterile technique, the media was removed and the cells were detached from the dish by the addition of trypsin. One fifth of the cells were then placed onto a new 10-cm dish. […] After 10 d, dishes were analyzed for surviving colonies of cells. […]
API: label(entry) gives true if the entry's IC50 is strictly smaller than 100 nM; on equality or larger values it gives false.

O=C(CCCCCCc1ccccc1)c1ncc(-c2ccc(C(=O)C(F)(F)F)cc2)o1 [Example 6]: false
COC(=O)c1ccc(-c2cnc(C(=O)CCCCCCc3ccccc3)o2)nc1 [Example 34]: true
COc1cccc(-c2cnc(C(=O)CCCCCCc3ccccc3)o2)c1 [Example 14]: false
COC(=O)c1ccccc1-c1cnc(C(=O)CCCCCCc2ccccc2)o1 [Example 22]: false
NC(=O)c1ccccc1-c1cnc(C(=O)CCCCCCc2ccccc2)o1 [Example 7]: false
O=C(CCCCCCc1ccccc1)c1ncc(-c2ccccc2F)o1 [Example 10]: false
NC(=O)c1ccc(-c2cnc(C(=O)CCCCCCc3ccccc3)o2)cc1 [Example 9]: true
O=C(CCCCCCc1ccccc1)c1ncc(-c2cc(=O)[nH]c(=O)[nH]2)o1 [Example 52]: true
O=C(O)c1cccc(-c2cnc(C(=O)CCCCCCc3ccccc3)o2)c1 [Example 25]: true
O=C(CCCCCCc1ccccc1)c1ncc(-c2ccccc2O)o1 [Example 30]: false
O=C(CCCCCCc1ccccc1)c1ncc(-c2cccc(F)c2)o1 [Example 11]: false
N#Cc1ccc(-c2cnc(C(=O)CCCCCCc3ccccc3)o2)cc1 [Example 18]: false
COC(=O)c1ccc(-c2cnc(C(=O)CCCCCCc3ccccc3)o2)s1 [Example 57]: true
N#Cc1cccc(-c2cnc(C(=O)CCCCCCc3ccccc3)o2)c1 [Example 17]: false
COC(=O)c1ccc(-c2cnc(C(=O)CCCCCCc3ccccc3)o2)o1 [Example 55]: true
NC(=O)c1cccc(-c2cnc(C(=O)CCCCCCc3ccccc3)o2)c1 [Example 8]: true
O=C(CCCCCCc1ccccc1)c1ncc(-c2cccc(O)c2)o1 [Example 31]: false
O=C(CCCCCCc1ccccc1)c1ncc(-c2ccc(O)cc2)o1 [Example 32]: false
Nc1cccc(-c2cnc(C(=O)CCCCCCc3ccccc3)o2)c1 [Example 28]: false
COC(=O)c1ccc(-c2cnc(C(=O)CCCCCCc3ccccc3)o2)cc1 [Example 24]: false
NS(=O)(=O)c1ccc(-c2cnc(C(=O)CCCCCCc3ccccc3)o2)cc1 [Example 21]: true
O=C(O)c1ccc(-c2cnc(C(=O)CCCCCCc3ccccc3)o2)cc1 [Example 26]: false
NS(=O)(=O)c1ccc(-c2cnc(C(=O)CCCCCCc3ccccc3)o2)s1 [Example 59]: true
COc1ccc(-c2cnc(C(=O)CCCCCCc3ccccc3)o2)cc1 [Example 15]: false
O=C(CCCCCCc1ccccc1)c1ncc(-c2cccc(C(=O)C(F)(F)F)c2)o1 [Example 5]: false
O=C(O)c1ccc(-c2cnc(C(=O)CCCCCCc3ccccc3)o2)o1 [Example 56]: true
O=C(CCCCCCc1ccccc1)c1ncc(-c2ccccc2C(=O)O)o1 [Example 60]: false
O=C(CCCCCCc1ccccc1)c1ncc(-c2ccc([N+](=O)[O-])cc2)o1 [Example 3]: false
Nc1ccccc1-c1cnc(C(=O)CCCCCCc2ccccc2)o1 [Example 27]: false
COC(=O)c1cccnc1-c1cnc(C(=O)CCCCCCc2ccccc2)o1 [Example 36]: false
Nc1ccc(-c2cnc(C(=O)CCCCCCc3ccccc3)o2)cc1 [Example 29]: false
NS(=O)(=O)c1cccc(-c2cnc(C(=O)CCCCCCc3ccccc3)o2)c1 [Example 20]: true
O=C(CCCCCCc1ccccc1)c1ncc(-c2ccccc2[N+](=O)[O-])o1 [Example 1]: false
O=C(CCCCCCc1ccccc1)c1ncc(-c2ccc(F)cc2)o1 [Example 12]: false
O=C(O)c1cccc(-c2cnc(C(=O)CCCCCCc3ccccc3)o2)n1 [Example 37]: true
N#Cc1ccccc1-c1cnc(C(=O)CCCCCCc2ccccc2)o1 [Example 16]: false
